# Test system: Aldehyde reductase AKR1A1 (Rattus norvegicus)
# Assay Summary: Inhibition of Wistar rat kidney aldehyde reductase-1 using D-glucuronate as substrate assessed as oxidation of NADPH at 10 uM preincubated for 10 mins followed by substrate addition measured for 4 mins by spectrophotometric analysis relative to control
I'd be grateful if you could share measured inhibition for these entries.
Numbers only, in %.

Worked cases, answers included:
O=C(O)Cn1c(=O)c(/C=C/c2ccccc2)nc2ccccc21 32
O=C(O)Cn1c(=O)c(/C=C/c2ccccc2)nc2ccc(Cl)cc21 35
O=C(O)Cn1c(=O)c(CCc2ccccc2)nc2ccccc21 22

Please supply inhibition for each of the following items, keeping them in order.
1. O=C(O)Cn1c(=O)c(/C=C/c2ccc(F)cc2)nc2cc(Cl)ccc21
2. CC(C)(C)NC(=O)/C=C/c1nc2ccccc2n(CC(=O)O)c1=O

Resp:
[25, 25]

Please supply inhibition for each of the following items, keeping them in order.
1. O=C(O)Cn1c(=O)c(/C=C/c2ccc(F)cc2)nc2cc([N+](=O)[O-])ccc21
2. COc1ccc(N2CCN(c3nc4ccccc4n(CC(=O)O)c3=O)CC2)cc1
3. O=C(O)Cn1c(=O)c(CCc2ccc(F)cc2)nc2ccccc21
4. O=C(O)Cn1c(=O)c(/C=C/c2ccc(F)cc2)nc2ccccc21

Resp:
25
48
40
47

Req: Consider the compound `O=C(O)Cn1c(=O)c(Nc2ccc(F)cc2F)nc2cc([N+](=O)[O-])ccc21` and give its recorded inhibition.
Resp: 41

---

# System Tested: UniProt:P07943
# Assay Summary: Inhibition of Wistar rat eye lens aldose reductase-2 using D-L glyceraldehyde as substrate assessed as oxidation of NADPH at 10 uM preincubated for 10 mins followed by substrate addition measured for 4 mins by spectrophotometric analysis relative to control
I'd be grateful if you could share measured inhibition for these entries.
Write down the value, and be sure its unit follows.

COc1ccc(N2CCN(c3nc4ccccc4n(Cc4ccc([N+](=O)[O-])cc4)c3=O)CC2)cc1 26%
CC(C)(C)NC(=O)/C=C/c1nc2ccccc2n(Cc2ccc([N+](=O)[O-])cc2)c1=O 36.2%
O=c1c(N2CCN(c3cccc(C(F)(F)F)c3)CC2)nc2ccccc2n1Cc1ccc([N+](=O)[O-])cc1 42.9%
O=c1c(N2CCN(c3cnccn3)CC2)nc2ccccc2n1Cc1ccc([N+](=O)[O-])cc1 24%
O=c1c(N2CCN(CCN3CCOCC3)CC2)nc2ccccc2n1Cc1ccc([N+](=O)[O-])cc1 23%

Please supply inhibition for each of the following items, keeping them in order.
1. O=c1c(/C=C/c2ccc(F)cc2)nc2ccccc2n1Cc1ccc([N+](=O)[O-])cc1
2. O=c1c(/C=C/c2ccccc2)nc2ccccc2n1Cc1ccc([N+](=O)[O-])cc1
3. O=c1c(-c2csc3ccccc23)nc2ccccc2n1Cc1ccc([N+](=O)[O-])cc1

Resp:
1: 24%; 2: 30%; 3: 32%
